Each entry below lists one item and its recorded IC50 value.
Target: hBACE 1 (Homo sapiens, UniProt P56817)
Sequence (P56817 46-501): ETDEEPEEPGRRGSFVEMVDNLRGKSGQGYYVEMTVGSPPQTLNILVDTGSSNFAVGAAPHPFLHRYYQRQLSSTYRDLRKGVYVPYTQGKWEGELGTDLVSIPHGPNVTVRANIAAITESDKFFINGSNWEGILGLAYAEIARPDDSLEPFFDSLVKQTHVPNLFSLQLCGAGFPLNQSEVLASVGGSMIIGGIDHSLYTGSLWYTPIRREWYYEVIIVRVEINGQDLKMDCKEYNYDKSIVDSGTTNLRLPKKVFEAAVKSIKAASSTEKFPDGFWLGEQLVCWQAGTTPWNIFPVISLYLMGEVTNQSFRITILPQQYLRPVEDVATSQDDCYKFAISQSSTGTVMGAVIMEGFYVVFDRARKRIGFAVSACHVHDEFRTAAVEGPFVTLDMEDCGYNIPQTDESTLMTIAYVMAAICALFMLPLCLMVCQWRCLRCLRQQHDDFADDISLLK
Assay: BACE 1 FRET inhibition assay
Assay type: biochemical
Details: hBACE 1 IC50 (μM) ± SD, mean ± SD, n = 3; human BACE 1; FRET assay
State just the number; it will be interpreted in µM.

Worked cases, IC50 given:
1. [H]/N=C(/N)NN=C(/C=C/c1ccc(C(C)(C)C)cc1)c1cn(Cc2ccc(Br)cc2)c2ccccc12 [Compound 3g] :: 178
2. [H]/N=C(/N)NN=C(/C=C/c1cccc(Br)c1)c1cn(Cc2ccccc2)c2ccccc12 [Compound 1h] :: 15.1
3. [H]/N=C(/N)NN=C(/C=C/c1ccccc1)c1cn(Cc2ccccc2C#N)c2ccccc12 [Compound 2e] :: 197
4. [H]/N=C(/N)NN=C(/C=C/c1ccc(C(C)(C)C)cc1)c1cn(Cc2ccc(-c3ccccc3)cc2)c2ccccc12 [Compound 3c] :: 201
5. [H]/N=C(/N)NN=C(/C=C/c1ccccc1C)c1cn(Cc2ccccc2)c2ccccc12 [Compound 1r] :: 206
6. [H]/N=C(/N)NN=C(/C=C/c1cc(OC)ccc1OC)c1cn(Cc2ccccc2)c2ccccc12 [Compound 1j] :: 72.2

Quote IC50 with test system hBACE 1 (Homo sapiens, UniProt P56817) for [H]/N=C(/N)NN=C(/C=C/c1cc(OC)ccc1OC)c1cn(Cc2ccc(CCCC)cc2)c2ccccc12 [Compound 3l] 196

----------
Target: hBACE 1 (Homo sapiens)
Test: BACE 1 FRET inhibition assay
Assay type: biochemical
Settings: hBACE 1 PIC50 (μM), human BACE 1
Each entry below lists one item and its recorded IC50 value.
State just the number; it will be interpreted in µM.

Worked cases, IC50 given:
1) [H]/N=C(/N)NN=C(/C=C/c1ccccc1)c1cn(Cc2ccc(Br)cc2F)c2ccccc12 [Compound 2i] :: 186
2) [H]/N=C(/N)NN=C(/C=C/c1ccccc1)c1cn(Cc2cc(OC)cc(OC)c2)c2ccccc12 [Compound 2g] :: 83.2
3) [H]/N=C(/N)NN=C(/C=C/c1cccc(OC)c1)c1cn(Cc2ccccc2)c2ccccc12 [Compound 1e] :: 117
4) [H]/N=C(/N)NN=C(/C=C/c1ccc(C(C)(C)C)cc1)c1cn(Cc2ccc(C(F)(F)F)cc2)c2ccccc12 [Compound 3k] :: 138
5) [H]/N=C(/N)NN=C(/C=C/c1ccc(C(C)(C)C)cc1)c1cn(Cc2ccc(C(C)(C)C)cc2)c2ccccc12 [Compound 3h] :: 178

Please list IC50 recorded for the molecule [H]/N=C(/N)NN=C(/C=C/c1ccc(C)cc1)c1cn(Cc2ccccc2)c2ccccc12 [Compound 1k] 132

Please list IC50 recorded for the molecule [H]/N=C(/N)NN=C(/C=C/c1cc(OC)ccc1OC)c1cn(Cc2ccc(CCCC)cc2)c2ccccc12 [Compound 3l] 195

----------
Biological target: hBACE 1 (Homo sapiens, UniProt P56817)
Test: BACE 1 FRET inhibition assay
Format: biochemical
Settings: hBACE 1 IC50 (μM) ± SD, mean ± SD, n = 3; human BACE 1; FRET assay
Each entry below lists one item and its recorded IC50 value.
State just the number; it will be interpreted in µM.

Please list IC50 recorded for the molecule `[H]/N=C(/N)NN=C(/C=C/c1cccc(F)c1)c1cn(Cc2ccccc2)c2ccccc12` 88.6

Please list IC50 recorded for the molecule `[H]/N=C(/N)NN=C(/C=C/c1ccc(F)c(F)c1)c1cn(Cc2ccccc2)c2ccccc12` 72.1

Please list IC50 recorded for the molecule `[H]/N=C(/N)NN=C(/C=C/c1ccc(N(C)C)cc1)c1cn(Cc2ccccc2)c2ccccc12` 89

Please list IC50 recorded for the molecule `[H]/N=C(/N)NN=C(/C=C/c1ccc(OCc2ccccc2)cc1)c1cn(Cc2cccc(OCc3ccccc3)c2)c2ccccc12` 189

Please list IC50 recorded for the molecule `[H]/N=C(/N)NN=C(/C=C/c1ccc(OCc2ccccc2)cc1)c1cn(Cc2ccc(C)cc2)c2ccccc12` 107

Please list IC50 recorded for the molecule `[H]/N=C(/N)NN=C(/C=C/c1ccccc1)c1cn(Cc2cc(C(F)(F)F)cc(C(F)(F)F)c2)c2ccccc12` 70

Please list IC50 recorded for the molecule `[H]/N=C(/N)NN=C(/C=C/c1ccc(C#N)cc1)c1cn(Cc2ccccc2)c2ccccc12` 9.38

----------
Biological target: EeAChE (Electrophorus electricus acetylcholinesterase) (Electrophorus electricus, UniProt O42275)
Sequence (O42275 24-633): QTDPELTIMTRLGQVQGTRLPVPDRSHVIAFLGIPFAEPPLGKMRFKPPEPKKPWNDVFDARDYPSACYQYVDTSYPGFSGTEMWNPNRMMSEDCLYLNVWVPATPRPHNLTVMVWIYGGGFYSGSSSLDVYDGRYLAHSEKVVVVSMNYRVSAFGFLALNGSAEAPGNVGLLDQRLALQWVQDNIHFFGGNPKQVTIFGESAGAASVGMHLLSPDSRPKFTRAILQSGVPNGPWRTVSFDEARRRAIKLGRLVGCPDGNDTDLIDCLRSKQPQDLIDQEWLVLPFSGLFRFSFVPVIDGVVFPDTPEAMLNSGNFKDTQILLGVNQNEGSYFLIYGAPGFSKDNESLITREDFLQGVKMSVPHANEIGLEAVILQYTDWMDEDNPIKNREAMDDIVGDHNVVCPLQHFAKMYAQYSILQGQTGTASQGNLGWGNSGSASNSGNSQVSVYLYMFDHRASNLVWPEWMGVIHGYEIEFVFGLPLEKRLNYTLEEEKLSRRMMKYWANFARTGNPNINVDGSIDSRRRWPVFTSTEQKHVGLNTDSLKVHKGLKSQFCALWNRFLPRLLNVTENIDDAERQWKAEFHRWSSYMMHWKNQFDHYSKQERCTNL
Experiment: AChE inhibition assay
Assay type: biochemical, electric eel
assayMetric: IC50 (µM)
State just the number; it will be interpreted in µM.

Worked cases, IC50 given:
1) [H]/N=C(/N)NN=C(/C=C/c1ccc(C(C)(C)C)cc1)c1cn(Cc2ccc(C(C)(C)C)cc2)c2ccccc12 :: 55.7
2) [H]/N=C(/N)NN=C(/C=C/c1cccc(Br)c1)c1cn(Cc2ccccc2)c2ccccc12 :: 66.3
3) [H]/N=C(/N)NN=C(/C=C/c1ccccc1)c1cn(Cc2ccccc2C#N)c2ccccc12 :: 44
4) [H]/N=C(/N)NN=C(/C=C/c1cccc(OC)c1OC)c1cn(Cc2ccccc2)c2ccccc12 :: 48.6

Please list IC50 recorded for the compound `[H]/N=C(/N)NN=C(/C=C/c1cc(OC)ccc1OC)c1cn(Cc2ccccc2)c2ccccc12` 61

Please list IC50 recorded for the compound `[H]/N=C(/N)NN=C(/C=C/c1ccccc1)c1cn(Cc2ccc(C(F)(F)F)cc2)c2ccccc12` 56

Please list IC50 recorded for the compound `[H]/N=C(/N)NN=C(/C=C/c1ccccc1C)c1cn(Cc2ccccc2)c2ccccc12` 46.8

Please list IC50 recorded for the compound `[H]/N=C(/N)NN=C(/C=C/c1ccccc1)c1cn(Cc2cccc(C#N)c2)c2ccccc12` 75.9

----------
Each entry below lists one item and its recorded IC50 value.
Target: hBACE 1 (Homo sapiens, UniProt P56817)
Test: BACE 1 FRET inhibition assay
Type: biochemical
Details: hBACE 1 IC50 (μM) ± SD, mean ± SD, n = 3; human BACE 1; FRET assay
State just the number; it will be interpreted in µM.

1) [H]/N=C(/N)NN=C(/C=C/c1ccc(Br)cc1)c1cn(Cc2ccccc2)c2ccccc12 :: 97.8
2) [H]/N=C(/N)NN=C(/C=C/c1ccccc1)c1cn(Cc2ccc(F)cc2F)c2ccccc12 :: 200

Please list IC50 recorded for the compound `[H]/N=C(/N)NN=C(/C=C/c1ccc(Cl)cc1)c1cn(Cc2ccccc2)c2ccccc12` 16.5

Please list IC50 recorded for the compound `[H]/N=C(/N)NN=C(/C=C/c1ccccc1)c1cn(Cc2cc(OC)cc(OC)c2)c2ccccc12` 83.4

Please list IC50 recorded for the compound `[H]/N=C(/N)NN=C(/C=C/c1ccccc1)c1cn(Cc2ccc(C(F)(F)F)cc2)c2ccccc12` 102

----------
Each entry below lists one item and its recorded IC50 value.
Target: hBACE 1 (Homo sapiens, UniProt P56817)
Experiment: BACE 1 FRET inhibition assay
Format: biochemical
Conditions: hBACE 1 IC50 (μM) ± SD, mean ± SD, n = 3; human BACE 1; FRET assay
State just the number; it will be interpreted in µM.

1. [H]/N=C(/N)NN=C(/C=C/c1ccc(OC)c(OC)c1)c1cn(Cc2cc(OC)cc(OC)c2)c2ccccc12 [Compound 3b] :: 198
2. [H]/N=C(/N)NN=C(/C=C/c1ccc(C(C)(C)C)cc1)c1cn(Cc2ccc(C(C)(C)C)cc2)c2ccccc12 [Compound 3h] :: 179
3. [H]/N=C(/N)NN=C(/C=C/c1cccc(OCc2ccccc2)c1)c1cn(Cc2ccccc2)c2ccccc12 [Compound 1o] :: 12.8
4. [H]/N=C(/N)NN=C(/C=C/c1ccc(C(C)(C)C)cc1)c1cn(Cc2ccccc2)c2ccccc12 [Compound 1b] :: 97.4
5. [H]/N=C(/N)NN=C(/C=C/c1cccc(OC)c1)c1cn(Cc2ccccc2)c2ccccc12 [Compound 1e] :: 117
6. [H]/N=C(/N)NN=C(/C=C/c1ccccc1)c1cn(Cc2cccc(C#N)c2)c2ccccc12 [Compound 2j] :: 178

Okay, next one:
Please list IC50 recorded for the compound [H]/N=C(/N)NN=C(/C=C/c1ccccc1)c1cn(Cc2ccc(Br)cc2F)c2ccccc12 [Compound 2i] 186

----------
Target: hBACE 1 (Homo sapiens, UniProt P56817)
Assay: BACE 1 FRET inhibition assay
Assay type: biochemical
Conditions: hBACE 1 PIC50 (μM), human BACE 1
Each entry below lists one item and its recorded IC50 value.
State just the number; it will be interpreted in µM.

1) [H]/N=C(/N)NN=C(/C=C/c1ccccc1[N+](=O)[O-])c1cn(Cc2ccccc2)c2ccccc12 :: 12.3
2) [H]/N=C(/N)NN=C(/C=C/c1ccc(OC)c(OC)c1)c1cn(Cc2cc(OC)cc(OC)c2)c2ccccc12 :: 200
3) [H]/N=C(/N)NN=C(/C=C/c1cccc(Br)c1)c1cn(Cc2ccccc2)c2ccccc12 :: 15.1

Quote IC50 with test system hBACE 1 (Homo sapiens, UniProt P56817) for `[H]/N=C(/N)NN=C(/C=C/c1ccc(N(C)C)cc1)c1cn(Cc2ccccc2)c2ccccc12` 89.1

Quote IC50 with test system hBACE 1 (Homo sapiens, UniProt P56817) for `[H]/N=C(/N)NN=C(/C=C/c1ccccc1C)c1cn(Cc2ccccc2)c2ccccc12` 204

Quote IC50 with test system hBACE 1 (Homo sapiens, UniProt P56817) for `[H]/N=C(/N)NN=C(/C=C/c1ccccc1)c1cn(Cc2ccc(F)cc2C(F)(F)F)c2ccccc12` 141

Quote IC50 with test system hBACE 1 (Homo sapiens, UniProt P56817) for `[H]/N=C(/N)NN=C(/C=C/c1ccc(C(C)(C)C)cc1)c1cn(Cc2ccccc2)c2ccccc12` 97.7

Quote IC50 with test system hBACE 1 (Homo sapiens, UniProt P56817) for `[H]/N=C(/N)NN=C(/C=C/c1ccc(OCc2ccccc2)cc1)c1cn(Cc2cccc(OCc3ccccc3)c2)c2ccccc12` 191
